# System: ROCK2
# Reported Conditions: concentration: 1 μM,replicates: in singlicate; n = 1;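 also: KINOMEscan kinase panel screen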
Catalogue of compounds with associated %Inh
# value in %; strip the unit string

Worked cases, %Inh given:
compound=NC(=O)c1ccc(-c2cc3ncnc(SCC(=O)O)c3s2)cc1 units_of_measure=% value=0
compound="COC(=O)c1cccc(NC(=O)NC2CCN(c3ccnc(Nc4cc(OC)c(OC)c(OC)c4)n3)C2)c1 (centres unmarked) [GSK1379767]" units_of_measure=% value=20
compound="COC(=O)c1cccc(NC(=O)NC2CCN(c3ccnc(NCc4ccc(F)cc4)n3)CC2)c1 [GSK1379860]" units_of_measure=% value=19
compound="CN1CCN(CCCNc2nccc(-c3c(-c4ccc(F)cc4)nn4cc(C(N)=O)ccc34)n2)CC1 [GW622475]" units_of_measure=% value=20
compound="Cl.Cl.NC[C@H](CC1CCCCC1)NC(=O)c1ccc(-c2ccnc3[nH]ccc23)s1 [GSK1581428]" units_of_measure=% value=98.9

# %Inh of Cc1nnc(-c2ccc3occ(-c4ccc(S(C)=O)cc4)c3n2)o1 (centres unmarked) = 0

# %Inh of Cc1cccc2c(-c3ccncc3)c(-c3ccc(F)cc3)nn12.Cl [GW461487] = 12

# %Inh of CC(C(=O)NC1CCN(c2ccnc(Nc3ccc(F)cc3)n2)C1)c1ccc(Cl)cc1 (centres unmarked) [GSK1379713] = 10

###

# Tested on: SRPK2
# Reported Conditions: concentration: 1 μM,replicates: in singlicate; n = 1
Measured Metric: %Inh (%)
# value in %; strip the unit string

compound=Nc1nccc(-c2ccc3c(N)n[nH]c3c2)n1 value=0
compound=FC(F)(F)c1cc(Br)cc(Nc2nccc(-c3cnn4ncccc34)n2)c1 value=0
compound=O=c1[nH]cc(-c2ccc(O)cc2)c2sc(-c3ccncc3)cc12 value=5
compound=C[C@@H]1CNc2c(sc3ccc4nc(-c5ccc(O)cc5)ccc4c23)C(=O)N1 value=0
compound=Cc1cccc(-c2nc(Nc3ccncc3)c3sccc3n2)n1 value=0

# %Inh measured on SRPK2 for item Cc1ccc(CC(=O)N2CCc3cc(-c4cn(C)c5ncnc(N)c45)ccc32)cc1 = 31

# %Inh measured on SRPK2 for item CC(C(=O)NC1CCN(c2ccnc(Nc3ccc(F)cc3)n2)C1)c1ccc(Cl)cc1 (stereo not drawn) = 0

# %Inh measured on SRPK2 for item CC(=O)Nc1ccc(-c2cc3ncnc(SCC(=O)O)c3s2)cc1 = 0

# %Inh measured on SRPK2 for item C[C@@H](Oc1cc(-n2cnc3cc(-c4cnn(C)c4)ccc32)sc1C(N)=O)c1ccccc1Cl = 42

###

Catalogue of compounds with associated %Inh
# System: MARK2
# Reported Conditions: concentration: 1 μM,replicates: in singlicate; n = 1
# value in %; strip the unit string

Worked cases, %Inh given:
compound="CC(C(=O)NC1CCN(c2ccnc(Nc3ccc(F)cc3)n2)C1)c1ccc(Cl)cc1 (centres unmarked)" value=0
compound=Cn1ccc2ncnc(Oc3ccc(NC(=O)Nc4cccc(C(F)(F)F)c4)c(F)c3)c21 value=9
compound="COc1cccc(CNC(=O)NC2CCN(c3ccnc(Nc4cc(OC)c(OC)c(OC)c4)n3)C2)c1 (centres unmarked)" value=0
compound=CS(=O)(=O)Nc1ccc(-c2ccnc3[nH]ccc23)cc1 value=0
compound=OCCn1cc(-c2cnc3nnn(Cc4ccc5ncccc5c4)c3n2)cn1 value=0
compound=CN(c1ccccc1CNc1nc(Nc2ccc3c(c2)CC(=O)N3)ncc1C(F)(F)F)S(C)(=O)=O value=37
compound=C[C@@H]1CCN(C(=O)N2CCCC2)C[C@@H]1N(C)c1ncnc2[nH]ccc12 value=50

# %Inh of CNC(=O)c1ccccc1Nc1nc(Nc2cccc(CS(C)(=O)=O)c2)ncc1C.O=CO = 87
